Parameter Ki, tested on UniProt P08913, listed per item.
Sequence (P08913 whole entry): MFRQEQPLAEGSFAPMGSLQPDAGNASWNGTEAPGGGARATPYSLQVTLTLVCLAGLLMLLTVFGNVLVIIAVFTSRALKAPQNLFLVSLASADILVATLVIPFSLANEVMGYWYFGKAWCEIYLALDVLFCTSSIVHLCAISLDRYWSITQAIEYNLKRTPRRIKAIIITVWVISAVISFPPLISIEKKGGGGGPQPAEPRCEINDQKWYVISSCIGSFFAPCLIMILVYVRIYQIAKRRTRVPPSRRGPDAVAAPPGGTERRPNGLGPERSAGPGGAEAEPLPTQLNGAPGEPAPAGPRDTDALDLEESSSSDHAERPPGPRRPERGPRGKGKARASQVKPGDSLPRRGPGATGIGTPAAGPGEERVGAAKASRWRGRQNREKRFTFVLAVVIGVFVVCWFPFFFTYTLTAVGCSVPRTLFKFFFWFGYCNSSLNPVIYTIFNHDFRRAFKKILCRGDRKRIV
Lab book: enter the figure in µM, no units written.

**Query** Given CCOP(=O)(OCC)C1(c2ccccc2)N=CC2C(=O)N(C(C)(C)C)C(=O)C21 (racemic) , state its recorded Ki.
**Result** 0.17

**Query** Given CCOP(=O)(OCC)C1N=CC2C(=O)N(C3CCCCC3)C(=O)C21 (racemic) , state its recorded Ki.
**Result** 0.000324

**Query** Given CCOP(=O)(OCC)C1(c2ccccc2)N=CC2C(=O)N(c3cc(Cl)cc(Cl)c3)C(=O)C21 (racemic) , state its recorded Ki.
**Result** 0.603

Values from ChEMBL document CHEMBL4354864
